// provenance: patent USRE49687E1

target: menin-MLL interaction (Homo sapiens, UniProt O00255); assay: Fluorescence polarization (FP) competition assay of the menin-MLL interaction; settings: inhibition of the menin-MLL interaction; read-out: IC50 values for Table 1 inhibitors of menin
Sequence (O00255 whole entry): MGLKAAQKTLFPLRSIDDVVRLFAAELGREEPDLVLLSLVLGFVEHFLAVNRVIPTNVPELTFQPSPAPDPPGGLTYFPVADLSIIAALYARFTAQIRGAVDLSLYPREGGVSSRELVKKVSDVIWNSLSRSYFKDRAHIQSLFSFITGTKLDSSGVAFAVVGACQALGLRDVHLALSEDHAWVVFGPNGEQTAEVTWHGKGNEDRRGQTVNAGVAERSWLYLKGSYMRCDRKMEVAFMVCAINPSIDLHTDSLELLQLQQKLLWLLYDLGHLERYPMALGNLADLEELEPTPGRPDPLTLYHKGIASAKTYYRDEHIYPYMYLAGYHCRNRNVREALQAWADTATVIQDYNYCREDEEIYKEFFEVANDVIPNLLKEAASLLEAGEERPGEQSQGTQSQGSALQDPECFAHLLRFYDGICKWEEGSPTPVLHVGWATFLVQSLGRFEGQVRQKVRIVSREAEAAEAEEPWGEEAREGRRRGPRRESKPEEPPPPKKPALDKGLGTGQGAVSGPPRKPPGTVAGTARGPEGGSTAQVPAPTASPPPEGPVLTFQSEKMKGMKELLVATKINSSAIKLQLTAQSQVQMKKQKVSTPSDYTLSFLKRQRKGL
Each entry below carries its recorded IC50.

Reference set, count: 5
In one line, give reported IC50 of the entry Cc1c(CN2CCC(Nc3ncnc4sc(CC(F)(F)F)cc34)CC2)ccc2c1cc(C#N)n2CCN1CCC2(CCNC2)C1 (stereo not shown) [Compound 171] .
0.03 to 0.1 µM

In one line, give reported IC50 of the entry C=CC(=O)NCCC(O)(CO)Cn1c(C#N)cc2c(C)c(CN3CCC(Nc4ncnc5sc(CC(F)(F)F)cc45)CC3)ccc21 (stereo not shown) [Compound 11] .
< 0.03 µM

In one line, give reported IC50 of the entry C=CC(=O)NC1CCN(CCn2c(C#N)cc3c(C)c(CN4CCC(Nc5ncnc6sc(CC(F)(F)F)cc56)CC4)ccc32)CC1 [Compound 25] .
0.03 to 0.1 µM

In one line, give reported IC50 of the entry C=CC(=O)Nc1ccc(C(C)(O)Cn2c(C#N)cc3c(C)c(CN4CCC(Nc5ncnc6sc(CC(F)(F)F)cc56)CC4)ccc32)cc1 (stereo not shown) [Compound 115] .
0.03 to 0.1 µM

In one line, give reported IC50 of the entry C=CC(=O)Nc1ccc([C@](C)(O)Cn2c(C#N)cc3c(C)c(CN4CCC(Nc5ncnc6sc(CC(F)(F)F)cc56)CC4)ccc32)cc1 [Compound 243] .
0.03 to 0.1 µM

Further cases:
In one line, give reported IC50 of the entry C=CS(=O)(=O)N1CCN(CCn2c(C#N)cc3c(C)c(CN4CCC(Nc5ncnc6sc(CC(F)(F)F)cc56)CC4)ccc32)CC1 [Compound 3] .
< 0.03 µM

In one line, give reported IC50 of the entry C/C=C/S(=O)(=O)N1CCN(CCn2c(C#N)cc3c(C)c(CN4CCC(Nc5ncnc6sc(CC(F)(F)F)cc56)CC4)ccc32)CC1 [Compound 7] .
< 0.03 µM

In one line, give reported IC50 of the entry CCC(=O)Nc1ccc(CCn2c(C#N)cc3c(C)c(CN4CCC(Nc5ncnc6sc(CC(F)(F)F)cc56)CC4)ccc32)cc1 [Compound 102] .
< 0.03 µM

In one line, give reported IC50 of the entry C=CC(=O)N1CCC2(CCN(CCn3c(C#N)cc4c(C)c(CN5CCC(Nc6ncnc7sc(CC(F)(F)F)cc67)CC5)ccc43)CC2)C1 [Compound 170] .
0.03 to 0.1 µM

In one line, give reported IC50 of the entry Cc1c(CN2CCC(Nc3ncnc4sc(CC(F)(F)F)cc34)CC2)ccc2c1cc(C#N)n2CCN1CCN(C(=O)/C=C/CN(C)C)CC1 [Compound 6] .
< 0.03 µM
